Reference for the values: patent US10662146B2

Test: Single dose intravenous PK study in male Sprague Dawley rats (plasma by LC-MS/MS)
Assay type: in vivo
Condition: male, Sprague Dawley, rat; single IV dose 2 mg/kg b.w., mean plasma PK parameters (Table 39.27); read-out: Tmax
Outcome Measure: Tmax (min)
Provide only the numeric value, understood in min.

QUERY: Can you look up the measured Tmax of CCN[C@H]1[C@H]2CC[C@H](C2)[C@@H]1c1ccccc1 [PRX-002 (+) Isomer, reference compound] for me?
RESULT: 4.8

---

Test: Single dose intravenous PK study in male Sprague Dawley rats (plasma by LC-MS/MS)
Assay type: in vivo
Condition: male, Sprague-Dawley, rat, plasma, iv, 2 mg/kg, PRX-P4-003 IV 2 mg/kg, mean; read-out: Vss of PRX-P4-003
Outcome Measure: Vd (L/kg)
Provide only the numeric value, understood in L/kg.

QUERY: Can you look up the measured Vd of CCCCCCCCCCCCCCCCCC(=O)OCOC(=O)N(CC)C1C2CCC(C2)C1c1ccccc1 (single isomer, unassigned) for me?
RESULT: 42

---

Test: Single dose oral PK study in male Sprague Dawley rats (plasma by LC-MS/MS)
Type: in vivo
Condition: male, Sprague-Dawley, rat, in vivo, po, 5 mg/kg, PRX-002 (+) Isomer oral 5 mg/kg, mean; read-out: T1/2 of PRX-002(+) Isomer (converted)
Outcome Measure: half-life (min)
Provide only the numeric value, understood in min.

QUERY: Can you look up the measured half-life of CCN[C@H]1[C@H]2CC[C@H](C2)[C@@H]1c1ccccc1 [PRX-002 (+) Isomer, reference compound] for me?
RESULT: 59.5

---

Test: Single dose oral PK study in male Sprague Dawley rats (plasma by LC-MS/MS)
Type: in vivo
Condition: male, Sprague-Dawley, rat, in vivo, po, 5 mg/kg, PRX-P5-006 oral 5 mg/kg, mean; read-out: MRTlast of PRX-P5-006
Outcome Measure: MRT last

QUERY: Can you look up the measured MRT last of CCCCCCCCCCCCCCCCCC(=O)OC(C)OC(=O)N(CC)C1C2CCC(C2)C1c1ccccc1 (single isomer, unassigned) for me?
RESULT: 1.07 h

---

Test: Single dose oral PK study in male Sprague Dawley rats (plasma by LC-MS/MS)
Format: in vivo
Condition: male, Sprague Dawley, rat, in vivo, po, 5 mg/kg, PRX-002 (−) Isomer oral 5 mg/kg, mean; read-out: AUCinf of PRX-002 (−) Isomer
Outcome Measure: AUC(0-inf) (ng·h/mL)
Provide only the numeric value, understood in ng·h/mL.

QUERY: Can you look up the measured AUC(0-inf) of CCN[C@@H]1[C@@H]2CC[C@@H](C2)[C@H]1c1ccccc1 [PRX-002 (−) Isomer, reference compound] for me?
RESULT: 427

---

Test: Single dose intravenous PK study in male Sprague Dawley rats (plasma by LC-MS/MS)
Format: in vivo
Condition: male, Sprague-Dawley, rat, plasma, iv, 2 mg/kg, PRX-P5-011 IV 2 mg/kg b.w., 24.00 h, mean
Outcome Measure: concentration at 24 h (µg/mL)
Provide only the numeric value, understood in µg/mL.

QUERY: Can you look up the measured concentration at 24 h of CCCCCCCCCCCCCCCCCC(=O)OC(C)OC(=O)N(CC)C1C2CCC(C2)C1c1ccccc1 (single isomer, unassigned) [PRX-P5-011] for me?
RESULT: 0
